experiment notes: Drug level in CDI patient plasma at 200 mg, po administered every 12 hrs for 10 days and measured 3 to 5 hrs post last dose by LC-MS/MS analysis
Type: ADME, organism-based
test settings: human, in vivo
measure: Cp

[ask] Which value of Cp has been reported for CCc1c(Cl)c(O)c(Cl)c(O)c1C(=O)O[C@H]1[C@H](O)[C@H](OC)[C@H](OC/C2=C\C=C\C[C@H](O)/C(C)=C/[C@H](CC)[C@@H](O[C@@H]3OC(C)(C)[C@@H](OC(=O)C(C)C)[C@H](O)[C@@H]3O)/C(C)=C/C(C)=C/C[C@@H]([C@@H](C)O)OC2=O)O[C@@H]1C in the records?
[reply] 25 to 50 ng/mL

###

experiment notes: Stability of compound in simulated intestinal fluid assessed as parent compound remaining at pH 6 measured after 8 hrs by HPLC analysis
Format: ADME
test settings: read-out: Stability
Task for the reader: assign each of the following compounds its reported remaining at 8 h.

[ask] Which value of remaining at 8 h has been reported for Cc1nc2c([N+](=O)[O-])csc2c(=O)[nH]1 in the records?
[reply] 76%

[ask] Which value of remaining at 8 h has been reported for Cc1nc(N2CCOCC2)c2scc([N+](=O)[O-])c2n1 in the records?
[reply] 80%

[ask] Which value of remaining at 8 h has been reported for Cc1nc2c([N+](=O)[O-])csc2c(=O)n1Cc1ccc([N+](=O)[O-])cc1 in the records?
[reply] 90%

[ask] Which value of remaining at 8 h has been reported for Cc1nc2c([N+](=O)[O-])csc2c(=O)n1CCCc1ccccc1 in the records?
[reply] < 10%

[ask] Which value of remaining at 8 h has been reported for O=c1[nH]c(/C=C/c2ccc(F)cc2)nc2c([N+](=O)[O-])csc12 in the records?
[reply] 51%

###

experiment notes: Cytotoxicity against human Caco2 cells measured after 2 hrs by MTS assay
Format: cell-based
test settings: Caco-2 cells
measure: CC50 at 2 h

[ask] Which value of CC50 at 2 h has been reported for Cc1nc2c([N+](=O)[O-])csc2c(=O)[nH]1 in the records?
[reply] > 606 µM

###

Task for the reader: assign each of the following molecules its reported remaining at 8 h.
experiment notes: Stability of compound in simulated gastric fluid assessed as parent compound remaining at pH 1.6 measured after 8 hrs by HPLC analysis
Assay type: ADME
test settings: read-out: Stability

[ask] Which value of remaining at 8 h has been reported for Cc1nc2c([N+](=O)[O-])csc2c(=O)n1CCCc1ccccc1 in the records?
[reply] < 10%

[ask] Which value of remaining at 8 h has been reported for Cc1nc2c([N+](=O)[O-])csc2c(=O)[nH]1 in the records?
[reply] 90%

[ask] Which value of remaining at 8 h has been reported for O=c1[nH]c(/C=C/c2ccc(F)cc2)nc2c([N+](=O)[O-])csc12 in the records?
[reply] 48%

[ask] Which value of remaining at 8 h has been reported for Cc1nc2c([N+](=O)[O-])csc2c(=O)n1Cc1ccc([N+](=O)[O-])cc1 in the records?
[reply] > 95%

[ask] Which value of remaining at 8 h has been reported for Cc1nc(N2CCOCC2)c2scc([N+](=O)[O-])c2n1 in the records?
[reply] < 10%

###

System: Bifidobacterium bifidum
experiment notes: Effect on growth of Bifidobacterium bifidum 212A ATCC 11863 measured after 48 hrs in anerobic conditions by CLSI method
Type: organism-based
test settings: in vivo
Task for the reader: assign each of the following compounds its reported MIC.

[ask] Which value of MIC has been reported for Cc1ncc([N+](=O)[O-])n1CCO in the records?
[reply] > 1496 µM

[ask] Which value of MIC has been reported for O=c1[nH]c(/C=C/c2ccccc2F)nc2c([N+](=O)[O-])csc12 in the records?
[reply] > 807 µM

[ask] Which value of MIC has been reported for Cc1nc2c([N+](=O)[O-])csc2c(=O)n1Cc1ccccc1 in the records?
[reply] > 425 µM

[ask] Which value of MIC has been reported for Cc1nc2c([N+](=O)[O-])scc2c(=O)[nH]1 in the records?
[reply] > 700 µM

[ask] Which value of MIC has been reported for Cc1nc2c([N+](=O)[O-])cccc2c(=O)[nH]1 in the records?
[reply] > 700 µM

[ask] Which value of MIC has been reported for O=c1[nH]cnc2ccc([N+](=O)[O-])cc12 in the records?
[reply] > 700 µM

[ask] Which value of MIC has been reported for Cc1nc2c([N+](=O)[O-])csc2c(=O)n1CCCc1ccccc1 in the records?
[reply] > 777 µM

[ask] Which value of MIC has been reported for Cc1nc2c([N+](=O)[O-])csc2c(=O)n1Cc1ccc([N+](=O)[O-])cc1 in the records?
[reply] > 739 µM

[ask] Which value of MIC has been reported for O=c1[nH]c(/C=C/c2ccc(Cl)cc2)nc2c([N+](=O)[O-])csc12 in the records?
[reply] > 767 µM

[ask] Which value of MIC has been reported for Cc1nc2c([N+](=O)[O-])csc2c(=O)[nH]1 in the records?
[reply] > 1212 µM

[ask] Which value of MIC has been reported for O=c1[nH]c(/C=C/c2ccc(F)cc2)nc2c([N+](=O)[O-])csc12 in the records?
[reply] > 807 µM

[ask] Which value of MIC has been reported for CCc1c(Cl)c(O)c(Cl)c(O)c1C(=O)O[C@H]1[C@H](O)[C@H](OC)[C@H](OC/C2=C\C=C\C[C@H](O)/C(C)=C/[C@H](CC)[C@@H](O[C@@H]3OC(C)(C)[C@@H](OC(=O)C(C)C)[C@H](O)[C@@H]3O)/C(C)=C/C(C)=C/C[C@@H]([C@@H](C)O)OC2=O)O[C@@H]1C in the records?
[reply] > 242 µM

[ask] Which value of MIC has been reported for Cc1nc2c([N+](=O)[O-])coc2c(=O)[nH]1 in the records?
[reply] > 700 µM

[ask] Which value of MIC has been reported for Cc1nc(N2CCOCC2)c2scc([N+](=O)[O-])c2n1 in the records?
[reply] > 913 µM
